# pIC50 per entry for GCN2 kinase (Homo sapiens (Human), UniProt Q9P2K8)
pIC50: −log10 of the molar value.

{"entry.smiles": "Cc1cc(-c2cnc3ccc(Cl)cn23)nc(N2C[C@H](C)C[C@H](N=S(C)(C)=O)C2)n1", "system.under.test": "GCN2 kinase (Homo sapiens (Human), UniProt Q9P2K8)", "result": "7.00 to 8.00"}
{"entry.smiles": "COCCn1cc([C@H]2C[C@H](C)CN(c3nccc(-c4cnc5ccc(C(F)(F)F)cn45)n3)C2)cn1", "system.under.test": "GCN2 kinase (Homo sapiens (Human), UniProt Q9P2K8)", "result": "6.00 to 7.00"}
{"entry.smiles": "CC1(C)C[C@H]1CN1CCN(c2ccnc(-c3cnc4ccc(C(F)(F)F)cn34)n2)C[C@@H]1c1cn[nH]c1", "system.under.test": "GCN2 kinase (Homo sapiens (Human), UniProt Q9P2K8)", "result": "7.00 to 8.00"}

Here is another compound to look at.
What reported pIC50 corresponds to Cc1n[nH]nc1[C@H]1C[C@@H](C)CN(c2ccnc(-c3cnc4ccc(C(F)(F)F)cn34)n2)C1 on GCN2 kinase (Homo sapiens (Human), UniProt Q9P2K8)?
7.00 to 8.00
